target: T1, Anti-CD28 Fab (SEQ ID NOs: 202, 203); test: phage ELISA on captured Fab, wells pre-incubated with CD28 antigen (competitor: CD28);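 note: bound clonal phage detected with an HRP-linked anti-M13 antibody, compared against wells that received blocking buffer alone without CD28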
T1 construct: biotinylated and captured on neutravidin coated plates in the phage ELISA
T1 sequence (VH, as listed by the source, chain 1 of 2): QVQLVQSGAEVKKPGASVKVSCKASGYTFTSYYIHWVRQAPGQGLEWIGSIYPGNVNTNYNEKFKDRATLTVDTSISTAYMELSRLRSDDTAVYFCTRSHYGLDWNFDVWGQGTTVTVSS
T1 sequence (VL, as listed by the source, chain 2 of 2): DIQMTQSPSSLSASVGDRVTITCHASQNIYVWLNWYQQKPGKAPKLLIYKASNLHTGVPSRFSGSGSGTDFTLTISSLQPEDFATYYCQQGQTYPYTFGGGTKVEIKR
The reader will find reported Anti-CD28 Fab signal in the presence of CD28 values listed item by item below.
Keep it simple and answer with nothing but the number.

Study these solved cases before continuing.
BINDER	MEAS VALUE
YCMGHSEEYMQKCL [Phage-196]	0.07
YCDGHQPEYMAKCL [Phage-187]	0.07
YCEGHSMQHMAKCL [Phage-217]	0.08
YCEGHSPEYMSHCF [Phage-216]	0.09
YCDGHFREYMQKCL [Phage-242]	0.06
YCAGHLPEYISKCL [Phage-188]	0.08
YCDGHSDQYMWKCL [Phage-261]	0.11
YCDGHSIEYRWKCL [Phage-162]	0.06
YCDGHVGEYMQKCL [Phage-233]	0.08

Turning now to a further record.
Which Anti-CD28 Fab signal in the presence of CD28 is reported for this binder? YCDGHMPEYMLKCL [Phage-199] 0.09
